Stated Conditions: Liquid; Ebulliometric method (Recirculating still)
Entries and their Normal boiling temperature values follow.

{"Structure As Smiles": "Cc1ccc(C)c(C)c1", "Value Units": "°C", "Normal boiling temperature": 169.30}
{"Structure As Smiles": "CCCCc1ccccc1", "Value Units": "°C", "Normal boiling temperature": 183.2}
{"Structure As Smiles": "O=CN1CCOCC1", "Value Units": "°C", "Normal boiling temperature": 240.0}
{"Structure As Smiles": "CC(C)c1ccccc1", "Value Units": "°C", "Normal boiling temperature": 152.40}
{"Structure As Smiles": "CCc1ccccc1", "Value Units": "°C", "Normal boiling temperature": 136.20}
